# Tested on: 786-0
# testMethodNotes: NCI tumour cell line growth inhibition, 48 h
Calls of active or inactive are those of the source. No stated cut-off is given here; in the data, active = GI50 up to about 1.1 µM and inactive = higher.
attributeMeasured: GI50

Use the examples below as a reference point.
| molecule | testedOn | attributeMeasured | result |
| --- | --- | --- | --- |
| Nc1ccc2c(c1)C(=O)c1ccc(F)cc1-2 | 786-0 | GI50 | > 100 µM (inactive) |
| O=C1[C@H](c2ccccc2)C2c3ccccc3CCN12 (stereo partly specified) | 786-0 | GI50 | > 10 µM (inactive) |
| O=c1[nH]cc(F)c(=O)[nH]1 | 786-0 | GI50 | 11.9 µM (inactive) |
| N#Cc1nc(Cc2ccccc2)oc1N | 786-0 | GI50 | > 100 µM (inactive) |
| CC(C)/C(Cl)=N\OC(=O)Nc1ccc(F)c([N+](=O)[O-])c1 | 786-0 | GI50 | 2.78 µM (inactive) |

Sure, the documented GI50 for CC(C)(c1cn(Cc2ccccc2)c2ccccc12)c1cn(Cc2ccccc2)c2ccccc12 is > 100 µM (inactive)
